target: T1, HLA-DR15 molecule (DRB1*1501) (human); assay: competition ELISA vs biotin-A3 152-166
T1 chain 1: not shown
T1 chain 2: not shown
EXPERIMENTAL ENDPOINT: IC50 (nM)
Numbers only; they are read as nM.

Recorded IC50, per entry:
TELQTTIHDIILECV (modifications not checked) [E6 24-38] :: 950
LCVQSTHVDIRTLED (modifications not checked) [E7 67-81] :: 950
ERPRKLPQLCTELQTTIHDII (modifications not checked) [E6(14-34)] :: 800

Name the recorded IC50 for PTLHEYMLDLQPETT (modifications not checked) [E7 6-20] . 675
